Test: NCI Yeast Anticancer Drug Screen. Data for the rad50 strain (AID 155);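 also: 0% = growth of vehicle-only cultures of the same strain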
Settings: S. cerevisiae rad50 strain growth inhibition; at 50.0 µM
Description: Growth inhibition of yeast strains with defined genetic alterations is measured as a screen for potential anti-cancer activity. Selected strains with alterations in DNA damage repair or cell cycle control were exposed to compounds and growth inhibition was measured relative to vehicle treated controls. The strain used in this assay is rad50
About 79,000 compounds went through this panel and 15% of them were active in at least one assay; those are over-represented in the sample as a whole. The source made the active and inactive calls. Rule as the data show it: active = growth inhibition above about 70%; inactive = the rest.
Outcome codes: true (1) = active, false (0) = inactive

MOLECULE | LABEL CLASS
C[CH2][Hg][Cl] | true (1)
C(=C/P(c1ccccc1)c1ccccc1)/P(c1ccccc1)c1ccccc1.C(=CP(c1ccccc1)c1ccccc1)P(c1ccccc1)c1ccccc1.[Pt] | true (1)
O=[N+]([O-])C(Br)CO (stereo not given) | true (1)
CC(O)C(=O)O.CC(O)C(=O)O.[Ni] (stereo not given) | false (0)
[N-]=[N+]=C1C(Cl)=C(Cl)C(Cl)=C1Cl | true (1)
CCCCCCCCCCCCCCCc1cccc(O)c1O | false (0)
Cc1cc(N(CCCl)CCCl)ccc1CN1CCCN(Cc2ccc(N(CCCl)CCCl)cc2C)C1c1ccc(N(CCCl)CCCl)cc1C | true (1)
Nc1ccc(Cl)cc1C(=O)c1ccccc1 | true (1)
N=C(N)SCc1ccccc1 | false (0)
CC(=O)OCC1OC([S-])C(OC(C)=O)C(OC(C)=O)C1OC(C)=O.CC[PH+](CC)CC.CC[PH+](CC)CC.[Au].[Au] (stereo not given) | true (1)
CC[C@@]1(O)C[C@H](OC2CC(N(C)C)C(O)C(C)O2)c2c(O)c3c(c(O)c2[C@H]1OC1CC(N(C)C)C(O)C(C)O1)C(=O)c1cccc(O)c1C3=O (stereo not given in full) | true (1)
Cc1ccc([PH+](c2ccc(C)cc2)c2ccc(C)cc2)cc1.Cc1ccc([PH+](c2ccc(C)cc2)c2ccc(C)cc2)cc1.[Cl][Hg][Cl] | false (0)
CC1C2C=CC1C(c1c3ccc(=O)c(O)c-3oc3c(O)c(O)ccc13)C2C(=O)O (stereo not given) | false (0)
[Se]c1ncnc2nc[nH]c12 | false (0)
Oc1cccc2cccnc12 | true (1)
CO[C@H](/C(C)=C/C=C/C(C)=C/c1coc(C)n1)[C@H](C)[C@H]1C[C@@H](O)[C@@]2(C)O[C@H]2/C=C/[C@@H](C)[C@@H]2C[C@@H](CC(=O)O2)C[C@H]2O[C@@H]2C(=O)O1 | false (0)
COC1CC2C(C[CH]1[Hg][Cl])C2(Cl)Cl (stereo not given) | true (1)
O=S(=O)(O)O.[Pt].c1ccc([PH+](c2ccccc2)c2ccccc2)cc1.c1ccc([PH+](c2ccccc2)c2ccccc2)cc1.c1ccc([PH+](c2ccccc2)c2ccccc2)cc1 | true (1)
[C-]#[O+].[C-]#[O+].[C-]#[O+].[CH3][Sn]([c]1ccccc1)[c]1ccccc1.[Co].c1ccc([PH+](c2ccccc2)c2ccccc2)cc1 | true (1)
C[C@]12Cc3conc3C(O)=C1CC[C@@H]1C2CC[C@@]2(C)C1CC[C@@H]2O (stereo not given in full) | true (1)
O=c1oc2ccccc2c(O)c1C(c1ccc2ccccc2c1)c1c(O)c2ccccc2oc1=O | true (1)
CCCCS.[Hg] | true (1)
CC1CC(Br)C(=O)O1 (stereo not given) | true (1)
C/C(=N\NS(=O)(=O)c1ccc(C)cc1)C(CN1CCOCC1)C(c1ccccc1)c1c(O)c2ccccc2oc1=O (stereo not given) | true (1)
NC(=O)c1ccc(N)nc1 | false (0)
ClCCN(CCCl)c1ccc(C2N(Cc3ccc(Cl)cc3)CCCN2Cc2ccc(Cl)cc2)cc1 | true (1)
O=C(c1ccc(Br)cc1)C1C(c2ccccc2)N1C1CCCCC1 (stereo not given) | true (1)
C[N+](C)(C)CC1CCCC(C[N+](C)(C)C)C1=O (stereo not given) | true (1)
[Se]C(=NCc1ccccc1)NCc1ccccc1 | true (1)
Cn1c2cccc(=O)c-2nc2ccccc21 | true (1)
COc1c(O)c2c(c3cc(C(=O)N4CCc5c4c(O)c(OC)c4[nH]c(C(=O)N6CC7CC78C6=CC(=O)c6[nH]cc(C)c68)cc54)[nH]c13)CCN2C(N)=O (stereo not given) | true (1)
CCC[CH2][Sn]([N]=C=S)([N]=C=S)[N]=C=S.O=P(c1ccccc1)(c1ccccc1)c1ccccc1.O=P(c1ccccc1)(c1ccccc1)c1ccccc1 | false (0)
CC12CCC3C(CCC4CC(N5CCCCC5)=CCC43C)C1CCC2O (stereo not given) | false (0)
CC(=O)OC1CCC2(C)C3CCC4(C)C(OC(=O)c5ccccc5)CCC4C3CC(Br)C2(O)C1 (stereo not given) | true (1)
O=c1[nH]cc(Cn2cnc3ncccc3c2=O)c(=O)[nH]1 | false (0)
CCc1ccc2c(c1)N(CCCN(CCCl)CCCl)c1ccccc1S2 | true (1)
[Cl][Hg][Cl].c1ccc(CSc2ccccc2)cc1 | true (1)
O=[N+]([O-])/C=C/c1ccccc1 | true (1)
O=C1c2ccc3ccccc3c2CCC1N1CCCCC1 (stereo not given) | true (1)
CC(=O)[O][Hg][c]1cc2c(cc1O)Cc1cc([N+](=O)[O-])ccc1-2 | true (1)

---

Test: NCI Yeast Anticancer Drug Screen. Data for the mec2-1 strain (AID 157)
Conditions: S. cerevisiae mec2-1 strain, at 50.0 µM, hits give high values
This is part of a sample that, as a whole, favours compounds with a hit. Of some 79,000 tested, about 15% had one in any assay.

COMPOUND | growth inhibition, %
CC(NCCN(C)C)C1CC2CCCCN2C1 (stereo unspecified) | 11.9
C/C(=N\N=C(/[Se])N1CC2CCC(CC2)C1)c1ccccn1 | 90.2
Cc1ccc(NP(=O)(Oc2ccccc2)N(CCCl)CCCl)cc1 (stereo unspecified) | 23.9
Cc1ccc(C#CCN2CCCCC2)cn1 | 11.1
CNCC(O)c1ccc(O)c(O)c1.[Pt].c1ccc([PH+](c2ccccc2)c2ccccc2)cc1.c1ccc([PH+](c2ccccc2)c2ccccc2)cc1 | 98.8
Cc1c([N+](=O)[O-])oc2ccc3ccccc3c12 | 94.8
[C-]#[O+].[C-]#[O+].[C-]#[O+].[CH3][Sn]([c]1ccccc1)[c]1ccccc1.[Co].c1ccc([PH+](c2ccccc2)c2ccccc2)cc1 | 99.5
S=P(Nc1ccccc1)(Nc1ccccc1)Nc1ccccc1 | 98
CCCCCCNC(=O)CI | 75.2
S=C=Nc1cccc(Cl)c1 | 86
CN1c2cccc[c]2[Sn]([CH3])([CH3])[c]2ccccc21 | 99.2

---

Experiment: NCI Yeast Anticancer Drug Screen. Data for the rad18 strain (AID 177)
Settings: S. cerevisiae rad18 mutant growth inhibition; at 1.2 µM; hits give high values
Compounds without any hit were thinned out: in the full panel of roughly 79,000, 15% have a hit. Activity calls are given as the source filed them. Rule as the data show it: active = growth inhibition above about 70%; inactive = the rest.
RECORDED ENDPOINT: growth inhibition

COMPOUND | REPORTED
CSc1ccccc1[As](C)C | 8% (inactive)
N#CC(C#N)=Cc1ccc(C#N)cc1 | -1% (inactive)
COc1cc(C2c3cc4c(cc3[C@@H](Nc3ccc(N)cc3)C3COC(=O)[C@H]23)OCO4)cc(OC)c1O (stereo partly specified) | -11% (inactive)
O=C(O)CCCOc1cc(Cl)c(Cl)cc1Cl | -33% (inactive)
CCNC(=O)OCC1C2=C(C(=O)C(C)=C(N)C2=O)N2CC3C(N3C)C12OC (stereo unspecified) | 13% (inactive)
OC1CCCC2CCC[N-]C12.OC1CCCC2CCC[N-]C12.[O]=[V][OH] (stereo unspecified) | 46% (inactive)

---

Test: NCI Yeast Anticancer Drug Screen. Data for the sgs1 strain (AID 173);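 also: 0% = growth of vehicle-only control cultures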
Details: S. cerevisiae sgs1 mutant, at 3.7 µM, hits give high values
Compounds without any hit were thinned out: in the full panel of roughly 79,000, 15% have a hit.

COMPOUND | growth inhibition [%]
CCCCCCCCCCCCCCCCP(=O)(O)OP(=O)(O)OCC1OC(n2ccc(N)nc2=O)C(O)C1O (configuration not stated) | 0
CC(C)(C)c1cc([N+](=O)[O-])cc([N+](=O)[O-])c1O | -8
CCCCCNC(=O)c1c(O)[nH]c(=S)[nH]c1=O | 0
OC1(c2ccccc2)CC2CCC(C1)N2CCCC(O)(c1ccccc1)c1ccccc1 (configuration not stated) | 3
CCN(CCCl)c1cc(CN(C)C)cc(NC(=O)c2ccc(C(=O)Nc3cc(CN(C)C)cc(N(CC)CCCl)c3)cc2)c1 | 3
c1c(N2CCOCC2)ssc1=[N+]1CCOCC1 | 1
O=C1NC(=S)NC(=O)C1=Cc1ccc([N+](=O)[O-])o1 | 2
CC[C@@]1(O)C[C@H](OC2CC(N(C)C)C(O)C(C)O2)c2c(O)c3c(c(O)c2[C@H]1OC1CC(N(C)C)C(O)C(C)O1)C(=O)c1cccc(O)c1C3=O (some centres not stated) | 9
O=C(/C=C(\c1ccccc1)N1CC1)c1ccccc1 | 2
CC1=C(N2CC2)C(=O)c2ccccc2C1=O | 10
COC(COC(=O)N1CCN(C=O)CC1)C1=C(N2CC2)C(=O)C(C)=C(N2CC2)C1=O (configuration not stated) | 14
CC1CC(Br)C(=O)O1 (configuration not stated) | -40
CCOP(=S)(S)OCC.[Pd] | 77
CCCCN(CCCC)CC(C(C)=O)C(c1ccccc1)c1c(O)c2ccccc2oc1=O (configuration not stated) | -6
COc1cccc2c1C(=O)c1c(O)c3c(c(O)c1C2=O)C[C@@](O)(/C(C)=N\O)C[C@@H]3OC1CC(N)C(O)C(C)O1 (some centres not stated) | 5
COc1cc(C2c3cc4c(cc3[C@@H](Nc3ccc(N)cc3)C3COC(=O)[C@H]23)OCO4)cc(OC)c1O (some centres not stated) | 77
CCC1(O)C(=O)OCc2c1cc1n(c2=O)Cc2cc3ccccc3nc2-1 (configuration not stated) | 15
CCNCC(=O)O[C@]1(CC)C(=O)OCc2c1cc1n(c2=O)Cc2cc3ccccc3nc2-1 | 15
COC1CC(CC2CCC(C)C(C(C)C(=O)O)O2)OC2(OC(C)(C3CCC(C)(C4OC(C5OC(O)(CO)C(C)CC5C)CC4C)O3)CC2C)C1C (configuration not stated) | -22
O=[N+]([O-])c1ccc(C=Cc2ccccc2)cc1.[C-]#[O+].[C-]#[O+].[C-]#[O+].[Cr] | 30
CCS(=O)(=O)[O][Sn]([CH2]C)([CH2]C)[O]S(=O)(=O)CC | -9
C[N+](CCCl)(CCCl)Cc1cccc2cccc([N+](=O)[O-])c12 | 19
C[C@]12CCc3nonc3C1CC[C@@H]1C2CC[C@]2(C)C(=O)CCC12 (some centres not stated) | 21
CCC1(O)C(=O)OCc2c1cc1n(c2=O)Cc2c-1nc1ccccc1c2OC (configuration not stated) | 18
CN(C)CCC(C(=O)C(Br)Br)(c1ccccc1)c1ccccc1 | 17
CCOC(=O)C1=C(C(=O)OCC)C2(c3ccccc3)N(O1)c1ccccc1C2(C)C (configuration not stated) | -5
N#Cc1cc(N(CCCl)CCCl)c([N+](=O)[O-])cc1[N+](=O)[O-] | 31
Oc1cccc2nc3ccccc3nc12 | -44
O=[N+]([O-])c1cc(S(=O)(=O)F)ccc1Cl | 13
Oc1ccc2nc3ccccc3nc2c1 | 2
Cc1c([N+](=O)[O-])oc2ccc3ccccc3c12 | 69
C[N+]1(CCCl)CC[N+](C)(CCCl)CC1 (configuration not stated) | -1
CC12CCC(C1)C(C)(C)C2OC(=O)c1ccccc1N (configuration not stated) | 0
CC[C@]1(O)CC(OC2CC(N(C)C)C(O)C(C)O2)c2c(cc3c(c2O)C(=O)c2c(O)cccc2C3=O)[C@@H]1C(=O)OC (some centres not stated) | -2
C=C[C@H]1CN2CC[C@H]1C[C@@H]2[C@@H](O)c1ccnc2ccccc12 | -5
CN(C)CCSC1=Nc2ccc(Cl)cc2C(c2ccccc2Cl)=NC1 | -1
O=Cc1ccc(C(F)(F)F)cc1.[C-]#[O+].[C-]#[O+].[C-]#[O+].[Cr] | 11
O=C1C=C(CN(CCCl)CCCl)C(=O)C=C1CN(CCCl)CCCl | 1
OC(c1ccc(Br)cc1)C(Cl)(Cl)Cl (configuration not stated) | 5
Cc1ccc2c(c1N)C(=O)c1ccccc1C2=O | -3
CCOC(=O)C1C2c3ccccc3C(c3ccccc32)C1C(=O)OCC (configuration not stated) | -19
O=P(Oc1ccc(Cl)cc1)(Oc1ccc(Cl)cc1)N1CC1 | -23

Data credit: PubChem BioAssay (NCI)
